Test system: Human ALPPL2 (Homo sapiens, UniProt P10696)
Sequence (P10696 with tags, fused parts or gaps): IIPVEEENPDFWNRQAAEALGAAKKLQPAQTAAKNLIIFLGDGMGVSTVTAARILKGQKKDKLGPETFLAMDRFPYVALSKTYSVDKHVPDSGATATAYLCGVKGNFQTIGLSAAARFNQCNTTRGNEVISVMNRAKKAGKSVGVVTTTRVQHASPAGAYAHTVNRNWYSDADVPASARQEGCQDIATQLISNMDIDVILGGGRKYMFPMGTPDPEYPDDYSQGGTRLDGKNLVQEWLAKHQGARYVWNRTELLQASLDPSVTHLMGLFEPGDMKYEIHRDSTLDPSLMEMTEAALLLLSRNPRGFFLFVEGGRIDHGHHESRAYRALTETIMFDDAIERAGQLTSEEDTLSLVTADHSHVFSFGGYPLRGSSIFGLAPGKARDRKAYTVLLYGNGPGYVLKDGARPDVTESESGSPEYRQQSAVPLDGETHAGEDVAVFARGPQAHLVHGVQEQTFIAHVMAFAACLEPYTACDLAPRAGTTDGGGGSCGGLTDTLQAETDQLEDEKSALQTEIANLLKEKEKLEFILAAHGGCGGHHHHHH
Experimental protocol: BLI binding kinetics, human ALPPL2 immobilised on AR2G sensors (KD / KD apparent)
Condition description: VHH domains
Measured metric: hALPPL2 Kd (s⁻¹)

• F05: ALPP/ALPPL2 targeting VHH domain, SEQ ID NO: 34 (protein) VHH: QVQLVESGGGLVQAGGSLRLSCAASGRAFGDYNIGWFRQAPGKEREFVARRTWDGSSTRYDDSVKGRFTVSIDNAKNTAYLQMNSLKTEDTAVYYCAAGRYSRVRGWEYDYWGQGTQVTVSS = 0.000356
• A06: ALPP/ALPPL2 targeting VHH domain, SEQ ID NO: 17; tested C-terminally His-tagged (protein, C-terminal His tag, tested C-terminally His-tagged) VHH: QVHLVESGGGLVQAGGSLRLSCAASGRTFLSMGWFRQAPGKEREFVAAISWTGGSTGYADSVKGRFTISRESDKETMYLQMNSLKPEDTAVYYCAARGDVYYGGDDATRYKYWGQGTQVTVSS = 0.000672

1: C07: ALPP/ALPPL2 targeting VHH domain, SEQ ID NO: 25 (protein) VHH: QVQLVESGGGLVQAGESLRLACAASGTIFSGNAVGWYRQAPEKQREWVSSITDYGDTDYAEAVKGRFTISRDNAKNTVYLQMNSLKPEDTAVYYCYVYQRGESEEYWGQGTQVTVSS
2: E10: ALPP/ALPPL2 targeting VHH domain, SEQ ID NO: 31 (protein) VHH: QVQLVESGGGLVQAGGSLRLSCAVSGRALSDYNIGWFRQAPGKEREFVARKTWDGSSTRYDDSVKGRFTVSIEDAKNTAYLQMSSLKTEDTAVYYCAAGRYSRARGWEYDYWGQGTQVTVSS
3: D10: ALPP targeting VHH domain, SEQ ID NO: 28 (protein) VHH: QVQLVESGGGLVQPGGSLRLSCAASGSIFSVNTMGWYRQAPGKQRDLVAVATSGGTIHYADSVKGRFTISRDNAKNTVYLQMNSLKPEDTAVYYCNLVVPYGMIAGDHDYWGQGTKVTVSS
Put these in order: smallest hALPPL2 Kd first, largest last. Quick reminder: the answer is the labels in the order asked.
2, 1, 3
